Please respond with reported IC50 for every item in the list.
Target: KRAS Q61H (Homo sapiens (Human), UniProt P01116+P62937, Q61H)
Sequence (P01116-2 other isoform, or with tags, fused parts or gaps Q61H): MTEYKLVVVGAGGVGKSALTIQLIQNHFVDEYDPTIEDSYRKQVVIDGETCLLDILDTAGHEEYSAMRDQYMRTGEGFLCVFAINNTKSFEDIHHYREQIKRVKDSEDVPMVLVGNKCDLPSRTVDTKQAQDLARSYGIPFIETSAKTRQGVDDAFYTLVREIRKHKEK
Sequence (P62937 whole entry): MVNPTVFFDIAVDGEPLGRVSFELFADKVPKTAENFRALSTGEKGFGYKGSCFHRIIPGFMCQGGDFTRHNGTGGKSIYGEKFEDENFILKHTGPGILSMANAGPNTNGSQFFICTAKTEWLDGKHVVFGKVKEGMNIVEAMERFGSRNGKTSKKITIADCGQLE
Experiment: Ras-Raf (BRAF RBD) disruption / FRET / MOA assay, KRAS Q61H
Format: biochemical
Conditions: Ras-Raf disruption/FRET/MOA assay; class symbols; read-out: KRAS Q61H FRET data IC50

*Q* If you can, please state the reported IC50 value of C=CC(=O)N1CC[C@H](C(=O)N(C)[C@H](C(=O)N[C@H]2Cc3cc(cc(C(F)F)c3)-c3ccc4c(c3)c(c(-c3cccnc3[C@H](C)OC)n4CC(F)(F)F)CC(C)(C)COC(=O)[C@@H]3CCCN(N3)C2=O)C(C)C)C1 (atropisomer, axis not shown) [Example A372] .
*A* 100 to 1000 nM

*Q* What value of IC50 has been recorded for this entry: C=CC(=O)N1CC[C@H](C(=O)N(C)[C@H](C(=O)N[C@H]2Cc3cc(O)cc(c3)-c3ccc4c(c3)c(c(-c3cncc(COC)c3)n4CC)CC(C)(C)COC(=O)[C@@H]3CCCN(N3)C2=O)C(C)C)C1 [Example A083]
*A* 100 to 1000 nM

*Q* Give the measured IC50 of C=CC(=O)N1CCO[C@H]2CN(C(=O)N(C)[C@H](C(=O)N[C@H]3Cc4cc(C(F)F)cc(n4)-c4ccc5c(c4)c(c(-c4cccnc4[C@H](C)OC)n5CC(F)(F)F)CC(C)(C)COC(=O)[C@@H]4CCCN(N4)C3=O)C(C)C)C[C@H]21 (atropisomer, axis not shown) [Example A540] .
*A* 100 to 1000 nM

*Q* Value lookup for IC50; key = C=CC(=O)N1CC[C@H](C(=O)N(C)[C@H](C(=O)N[C@H]2Cc3cccc(c3)-c3ccc4c(c3)c(c(-c3cnn(C5CCN(C)CC5)c3[C@H](C)OC)n4CC)CC(C)(C)COC(=O)[C@@H]3CCCN(N3)C2=O)C(C)C)C1 [Example A482]
*A* > 10000 nM

*Q* Look at this molecule and give its reported IC50. C=CC(=O)N1CCC[C@]12CCN(C(=O)N(C)[C@H](C(=O)N[C@H]1Cc3nc(cs3)-c3ccc4c(c3)c(c(-c3cccnc3[C@H](C)OC)n4CC)CC(C)(C)COC(=O)[C@@H]3CCCN(N3)C1=O)C(C)C)C2 (atropisomer, axis not shown) [Example A548]
*A* 100 to 1000 nM

*Q* GET /values?readout=IC50&item= C=CC(=O)N(C)CCC1CCN(C(=O)N(C)[C@H](C(=O)N[C@H]2Cc3nc(cs3)-c3ccc4c(c3)c(c(-c3cccnc3[C@H](C)OC)n4CC)CC(C)(C)COC(=O)[C@@H]3CCCN(N3)C2=O)C(C)C)CC1 (atropisomer, axis not shown) [Example A621]
*A* < 10 nM

*Q* GET /values?readout=IC50&item= C=CC(=O)N1CC[C@H](C(=O)N(C)[C@H](C(=O)N[C@H]2Cc3nc(n(C)n3)-c3ccc4c(c3)c(c(-c3cccnc3[C@H](C)OC)n4CC)CC(C)(C)COC(=O)[C@@H]3CCCN(N3)C2=O)C(C)C)C1 (atropisomer, axis not shown) [Example A314]
*A* 100 to 1000 nM

*Q* Query: IC50; subject: C=CC(=O)N1CC[C@H](C(=O)N(C)[C@H](C(=O)N[C@H]2Cc3nc(cs3)-c3ccc4c(c3)c(c(-c3cc5c(nc3[C@H](C)OC)CCN(C)C5)n4CC)CC(C)(C)COC(=O)[C@@H]3CCCN(N3)C2=O)C(C)C)C1 (atropisomer, axis not shown) [Example A472]
*A* 1000 to 10000 nM
